# System Under Test: G-protein coupled receptor 55 (Homo sapiens) (UniProt Q9Y2T6)
# Sequence (Q9Y2T6 whole entry, looked up): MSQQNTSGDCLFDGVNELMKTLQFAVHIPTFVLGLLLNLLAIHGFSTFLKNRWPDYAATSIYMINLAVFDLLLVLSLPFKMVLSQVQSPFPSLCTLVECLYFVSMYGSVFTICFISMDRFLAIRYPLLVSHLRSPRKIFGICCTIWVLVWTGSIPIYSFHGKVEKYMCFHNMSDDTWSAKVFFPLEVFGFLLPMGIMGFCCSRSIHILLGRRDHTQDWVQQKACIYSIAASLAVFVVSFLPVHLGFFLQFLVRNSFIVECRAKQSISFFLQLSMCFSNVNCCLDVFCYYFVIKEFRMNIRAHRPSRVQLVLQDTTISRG
# Assay Method Text: GPR55 antagonists blocking LPI-driven arrestin recruitment, primary screen, imaging, U2OS, beta-arrestin-GFP, LPI agonist (AID 2013);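 note: U2OS cells stably carrying GPR55 and arrestin-GFP stimulated by 5 µM LPI near EC80; imaged beta-arrestin-GFP aggregate spots per cell after agonist stimulation; plate controls were LPI-stimulated DMSO wells for no effect and DMSO wells without LPI for full effect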
# Measurement Setup: U2OS GPR55 beta-arrestin-GFP translocation imaging, LPI antagonism; at 10 µM; active compounds read high
Out of some 290,000 compounds screened, about 370 (0.13%) were called active. The entries come from a sample that favours actives as a whole. Potency and affinity values are given separately.
Measured inhibition, listed per entry.
# output: bare number, implied unit %

// solved cases for inhibition follow
[
  {
    "Compound": "Cc1ccccc1Cn1c(=N)n(CC(=O)c2ccc([N+](=O)[O-])cc2)c2ccccc21",
    "inhibition (%)": 11
  },
  {
    "Compound": "COc1ccc(CCN2C(=O)c3[nH]nc(-c4ccccc4O)c3C2c2cccc(Cl)c2)cc1 (stereo unspecified)",
    "inhibition (%)": 4.8
  },
  {
    "Compound": "COc1ccc(C(=O)C2CCCN(Cc3cn(C)nc3-c3ccccc3)C2)cc1F (stereo unspecified)",
    "inhibition (%)": 4.8
  },
  {
    "Compound": "COc1ccc(S(=O)(=O)N2CCCOC2CNC(=O)C(=O)NCc2cccnc2)cc1 (stereo unspecified)",
    "inhibition (%)": 13.9
  },
  {
    "Compound": "CN(C)S(=O)(=O)NCCNC(=O)c1cc(OCC(F)(F)F)ccc1OCC(F)(F)F",
    "inhibition (%)": -3.8
  },
  {
    "Compound": "CC(c1nnc(SCC(=O)N2CC(=O)Nc3ccccc32)n1Cc1ccccc1)N(C)C (stereo unspecified)",
    "inhibition (%)": -4.8
  },
  {
    "Compound": "CCCOC(=O)c1ccc(Oc2c(-c3ccc(O)cc3O)n[nH]c2C)cc1",
    "inhibition (%)": 36.9
  },
  {
    "Compound": "CCN1CCCC1CN(Cc1cc2cc(OC)ccc2[nH]c1=O)C(=O)NCc1ccccc1 (stereo unspecified)",
    "inhibition (%)": 11.3
  }
]

Here `COc1ccc(/C=C/C(=O)NCc2ccccn2)cc1OC` was tested on G-protein coupled receptor 55 (Homo sapiens) (UniProt Q9Y2T6), and its inhibition came to -3

Here `O=C1C=CC(=O)N1Cc1ccccc1` was tested on G-protein coupled receptor 55 (Homo sapiens) (UniProt Q9Y2T6), and its inhibition came to -45

Here O=C1C2C3C=CC(C3)C2C(=O)N1CCCCCCN1C(=O)C2C3C=CC(C3)C2C1=O (stereo unspecified) was tested on G-protein coupled receptor 55 (Homo sapiens) (UniProt Q9Y2T6), and its inhibition came to 12

Here `Cc1ccc(Cn2c(=N)n(CC(=O)c3ccc([N+](=O)[O-])cc3)c3ccccc32)cc1` was tested on G-protein coupled receptor 55 (Homo sapiens) (UniProt Q9Y2T6), and its inhibition came to 44.2

Here COc1ccc(C2CCCN2CC(O)COc2ccccc2C(C)C)cc1 (stereo unspecified) was tested on G-protein coupled receptor 55 (Homo sapiens) (UniProt Q9Y2T6), and its inhibition came to 5.6

Here `CCOC(=O)c1[nH]c2ccc(Cl)cc2c1NC(=O)/C=C/c1ccc2c(c1)OCO2` was tested on G-protein coupled receptor 55 (Homo sapiens) (UniProt Q9Y2T6), and its inhibition came to -10.3

Here `Cn1cc([C@@H]2C[C@H]3CN(C4CCCC4)C(=O)[C@]34CCCN24)c(-c2ccccc2)n1` was tested on G-protein coupled receptor 55 (Homo sapiens) (UniProt Q9Y2T6), and its inhibition came to -0.1

Here `CC(=O)Nc1ccc(Nc2nc(C(F)(F)F)nc3c2nnn3Cc2ccccc2Cl)cc1` was tested on G-protein coupled receptor 55 (Homo sapiens) (UniProt Q9Y2T6), and its inhibition came to -4.9

Here `CCCc1ccc(Oc2cn[nH]c2-c2ccc(O)c(C)c2O)cc1` was tested on G-protein coupled receptor 55 (Homo sapiens) (UniProt Q9Y2T6), and its inhibition came to 20.9

Here COc1ccccc1CN1CC(C(=O)N(C)CCOc2ccccc2)CCC1=O (stereo unspecified) was tested on G-protein coupled receptor 55 (Homo sapiens) (UniProt Q9Y2T6), and its inhibition came to 4.1

Here COc1ccc(C2c3c(-c4ccccc4O)n[nH]c3C(=O)N2CCc2ccc(OC)c(OC)c2)cc1 (stereo unspecified) was tested on G-protein coupled receptor 55 (Homo sapiens) (UniProt Q9Y2T6), and its inhibition came to 9.9

Here `N=c1n(CC(=O)c2cccc([N+](=O)[O-])c2)c2ccccc2n1Cc1ccccc1` was tested on G-protein coupled receptor 55 (Homo sapiens) (UniProt Q9Y2T6), and its inhibition came to 28.3

Here `O=C(NNC(=S)NCc1ccccc1)c1ccc(Br)o1` was tested on G-protein coupled receptor 55 (Homo sapiens) (UniProt Q9Y2T6), and its inhibition came to 13.5

* * *

Measured inhibition, listed per entry.
# System Under Test: G-protein coupled receptor 55 (Homo sapiens) (UniProt Q9Y2T6)
# Assay Method Text: GPR55 antagonists blocking LPI-driven arrestin recruitment, primary screen, imaging, U2OS, beta-arrestin-GFP, LPI agonist (AID 2013)
# Measurement Setup: U2OS GPR55 beta-arrestin-GFP translocation imaging, LPI antagonism; at 10 µM; active compounds read high
Out of some 290,000 compounds screened, about 370 (0.13%) were called active. For the sample, actives were picked, then their nearest neighbours and some compounds at random. Entries with a potency or affinity are not part of this list.
# output: bare number, implied unit %

Per the record, `COc1ccccc1NC(=O)COc1ccc2c(c1)OCO2` has inhibition of 19

Per the record, `CCCCn1c(NC(C)=O)c(C#N)c2nc3ccccc3nc21` has inhibition of 17

Per the record, `CN1C(=O)/C(=C\c2ccccc2OCc2ccccc2)SC1=S` has inhibition of -1.8

Per the record, `CCN(CC)c1ccc(/C=N/n2c(C)nc3ccccc3c2=O)cc1` has inhibition of -7.1

Per the record, `CCn1nc(C)c(/C=N/NC(=O)Cn2nnc(N)n2)c1C` has inhibition of -1.9

Per the record, `Cc1[nH]c2ccccc2c1C(=O)CSc1nc2ccccc2c(=O)n1CCCN1CCOCC1` has inhibition of -7.3

Per the record, `O=S(=O)(Nc1ccc(Cc2ccncc2)cc1)c1ccc(Br)cc1` has inhibition of 2.9

Per the record, `O=C(CCCn1c(=O)[nH]c2ccccc2c1=O)N1CCN(c2ccccn2)CC1` has inhibition of 3.9

Per the record, `CC(=O)c1ccc(NC(=O)CCc2c(C)nn(-c3ccc(N4CCOCC4)nn3)c2C)cc1` has inhibition of 4.4

Per the record, `COCCNC(=O)c1ccccc1NC(=O)CN(c1ccc2c(c1)OCO2)S(C)(=O)=O` has inhibition of 6.3

Per the record, CCOC(=O)CCNC(=O)N1CCCC(N(C)CCc2ccc(OC)c(OC)c2)C1 (configuration not stated) has inhibition of 6.3

* * *

# System Under Test: G-protein coupled receptor 55 (Homo sapiens) (UniProt Q9Y2T6)
# Assay Method Text: GPR55 antagonists blocking LPI-driven arrestin recruitment, primary screen, imaging, U2OS, beta-arrestin-GFP, LPI agonist (AID 2013);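 note: U2OS cells stably carrying GPR55 and arrestin-GFP stimulated by 5 µM LPI near EC80; imaged beta-arrestin-GFP aggregate spots per cell after agonist stimulation; plate controls were LPI-stimulated DMSO wells for no effect and DMSO wells without LPI for full effect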
# Measurement Setup: U2OS GPR55 beta-arrestin-GFP translocation imaging, LPI antagonism; at 10 µM
Among all 290,000 compounds or so, about 370 (0.13%) were called active.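 The calls were made as follows: active = spots per cell inhibited over 60%, with over 100 cells counted and total cytoplasm intensity under 500,000; inconclusive = wells with under 100 cells, flagged as likely toxic; inactive = the rest.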 What follows is part of a selection rich in actives, with near analogues and random picks from the rest. Measured potencies and affinities stand elsewhere.
The reply should name one outcome from yes for active, no for inactive

-- ask Would you mind telling me which call this test gave `CCOC(=O)C1=C(C)NC(C)=C(C(=O)OCC)C1c1ccc(C)o1` ?
-- reply no

-- ask Would you mind telling me which call this test gave `O=C(NCC(=O)N1CCC2(CC1)NCCc1[nH]cnc12)c1ccc2ccccc2c1` ?
-- reply no

* * *

# System Under Test: G-protein coupled receptor 55 (Homo sapiens)
# Assay Method Text: GPR55 antagonists blocking LPI-driven arrestin recruitment, primary screen, imaging, U2OS, beta-arrestin-GFP, LPI agonist (AID 2013);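 note: U2OS cells stably carrying GPR55 and arrestin-GFP stimulated by 5 µM LPI near EC80; imaged beta-arrestin-GFP aggregate spots per cell after agonist stimulation; plate controls were LPI-stimulated DMSO wells for no effect and DMSO wells without LPI for full effect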
# Measurement Setup: U2OS GPR55 beta-arrestin-GFP translocation imaging, LPI antagonism; at 10 µM; active compounds read high
The campaign covered roughly 290,000 compounds. About 370 (0.13%) were called active. The entries come from a sample that favours actives as a whole. Measured potencies and affinities stand elsewhere.
Measured inhibition, listed per entry.
# output: bare number, implied unit %

Per the record, `CCOC(=O)c1cnc(SC)nc1Oc1cccc(NC(=O)c2cccc(Cl)c2Cl)c1` has inhibition of 9.1

Per the record, `Cn1c(N)c(C(=O)COC(=O)CCC2CCCCC2)c(=O)n(C)c1=O` has inhibition of 8.4

Per the record, `CCCCCCCCOC(=O)CCc1c(C)[nH]c(=S)[nH]c1=O` has inhibition of -16.9

* * *

# System Under Test: G-protein coupled receptor 55 (Homo sapiens)
# Assay Method Text: GPR55 antagonists blocking LPI-driven arrestin recruitment, primary screen, imaging, U2OS, beta-arrestin-GFP, LPI agonist (AID 2013);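 note: U2OS cells stably carrying GPR55 and arrestin-GFP stimulated by 5 µM LPI near EC80; imaged beta-arrestin-GFP aggregate spots per cell after agonist stimulation; plate controls were LPI-stimulated DMSO wells for no effect and DMSO wells without LPI for full effect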
# Measurement Setup: U2OS GPR55 beta-arrestin-GFP translocation imaging, LPI antagonism; at 10 µM; active compounds read high
The whole screen tested about 290,000 compounds, of which about 370 (0.13%) were called active. Shown is part of a subset that was picked to be rich in actives. Results with a measured potency or affinity are listed apart.
Measured inhibition, listed per entry.
# output: bare number, implied unit %

// solved cases for inhibition follow
[
  {
    "Molecule": "COC(=O)c1cc(NC(=O)Cc2ccc(OC)c(OC)c2)cc(C(=O)OC)c1",
    "System Under Test": "G-protein coupled receptor 55 (Homo sapiens)",
    "Unit Descriptor": "%",
    "Measurement": 11
  },
  {
    "Molecule": "CCC(C)(C)n1nnnc1C(c1cccc(C#N)c1)N1CCN(c2cc(C)ccc2C)CC1 (configuration not stated)",
    "System Under Test": "G-protein coupled receptor 55 (Homo sapiens)",
    "Unit Descriptor": "%",
    "Measurement": 2.5
  },
  {
    "Molecule": "O=C(NC(=S)Nc1ccccc1N1CCOCC1)c1ccccc1F",
    "System Under Test": "G-protein coupled receptor 55 (Homo sapiens)",
    "Unit Descriptor": "%",
    "Measurement": 16.2
  },
  {
    "Molecule": "COc1ccc(C(=O)OCC(=O)NC2CCCC2)c(OC)c1OC",
    "System Under Test": "G-protein coupled receptor 55 (Homo sapiens)",
    "Unit Descriptor": "%",
    "Measurement": 3.7
  },
  {
    "Molecule": "NS(=O)(=O)c1ccc(NC(=S)Nc2ccc(C(=O)N3CCCCC3)cc2)cc1",
    "System Under Test": "G-protein coupled receptor 55 (Homo sapiens)",
    "Unit Descriptor": "%",
    "Measurement": 0.7
  },
  {
    "Molecule": "CCCCN(C(=O)CCCc1nc2ccccc2c(=O)[nH]1)c1c(N)n(CCCC)c(=O)[nH]c1=O",
    "System Under Test": "G-protein coupled receptor 55 (Homo sapiens)",
    "Unit Descriptor": "%",
    "Measurement": 21.5
  }
]

Per the record, O=C1C(Cc2ccc(Br)cc2)SC(=Nc2ccccc2)N1c1ccccc1 (configuration not stated) has inhibition of 7.8

Per the record, `NC(=O)c1ccc[n+](CC(=O)c2ccc(Br)cc2)c1` has inhibition of 9.5

Per the record, `O=C1/C(=C\c2ccc(O)c(O)c2)C(c2ccccc2)=NN1c1ccccc1` has inhibition of -3.8

Per the record, `O=C(NNc1c(Cl)cccc1Cl)c1ccno1` has inhibition of 5

Per the record, `CCN1CCN(CCNC(=O)c2ccc(/C=C3/Sc4ccccc4N(Cc4cccc(Cl)c4)C3=O)cc2)CC1` has inhibition of 7.6

Per the record, `COc1ccc(C)cc1Nc1n[n+](-c2ccccc2)c(-c2ccc(SC)cc2)s1` has inhibition of 4.4

Per the record, COc1ccc(S(=O)(=O)N2CCCOC2CNC(=O)C(=O)NCc2ccccc2F)cc1C (configuration not stated) has inhibition of 22

Per the record, `Cc1cccc(N(C)C(=O)c2cc(S(=O)(=O)N3CCc4ccccc43)cn2C)c1` has inhibition of 8.9

Per the record, `c1ccc(CN2CCC(Nc3nc(-c4ccccc4)nc4ccccc34)CC2)cc1` has inhibition of 31

Per the record, CC1(c2cc([N+](=O)[O-])cc([N+](=O)[O-])c2)CC(C)(C)N(C(=O)c2ccccc2)c2ccccc21 (configuration not stated) has inhibition of -0.2

Per the record, `Cc1cc(C)n(/C(=C\N(C)C)C(=O)c2ccc(Cl)cc2)n1` has inhibition of 6.9

Per the record, C=CCN1C(=O)SC(Cc2cccc(OC)c2O)C1=O (configuration not stated) has inhibition of -4.5

Per the record, `O=C(NC(=S)Nc1ccccc1N1CCOCC1)c1ccc([N+](=O)[O-])cc1` has inhibition of 5

Per the record, `COc1cc(/C=C2\C(=O)N(c3ccc(NC(C)=O)cc3)N=C2c2ccccc2)ccc1O` has inhibition of 89.7

Per the record, `COc1ccc(C(=O)NC(=S)Nc2ccccc2N2CCOCC2)cc1Br` has inhibition of 0.4
